src = ChEMBL document CHEMBL4513216

- Test system: Plasmodium falciparum
- testDescription: Screen against P. falciparum Asexual Blood Stage (ABS), at 5uM
- Type: functional, Dd2
- conditionsUsed: tested at 5 uM
Screen size: about 65,000 compounds; about 2,100 (3.2%) showed an effect of 50% or more. The median lay at about -52%. The sample as a whole holds a higher share of strong results than the screen did.
reportedProperty: INHIBITION

Please review the following examples before continuing.
| compound | experimentalSystem | INHIBITION |
| --- | --- | --- |
| Fc1ccc(CN2CCC3(CC2)CN(c2ccccn2)CCO3)cc1 | Plasmodium falciparum | 49% |
| CN(C)C1CCC2(CCN(Cc3nccn3C)CC2)c2ccccc21 (stereo not drawn) | Plasmodium falciparum | 24.3% |
| COC[C@@]12CCO[C@@H]1CCN(Cc1ccc(C)s1)C2 | Plasmodium falciparum | -35.8% |
| COc1ncccc1CN1CCC2(CC1)CN(c1ccccn1)CCO2 | Plasmodium falciparum | 56.5% |
| CN(Cc1ccco1)C1CCC12CCN(C(=O)c1ccncc1)CC2 (stereo not drawn) | Plasmodium falciparum | 38.3% |
| CS(=O)(=O)NC[C@H]1Cn2c(-c3ccc(Cl)cc3)cnc2CO1 | Plasmodium falciparum | 57.1% |

Lab note: CCN1CCN(C(=O)CCc2c(C)noc2Cl)CC1 gave INHIBITION of 1.06%

Data point: CN(C)C(=O)c1cccc(CN2CCN(CCO)CC2)c1 ; INHIBITION = 61%

INHIBITION recorded for this compound, CC(C)c1nc(CN(C)C(=O)c2cn3ccsc3n2)cs1 , is -43.1%

* * *

- System: Plasmodium falciparum
- testDescription: Screen against P. falciparum Asexual Blood Stage (ABS), at 5uM
- Assay type: functional, Dd2
- conditionsUsed: tested at 5 uM
The whole screen tested about 65,000 compounds, of which about 2,100 (3.2%) showed an effect of 50% or more. The median lay at about -52%. This is one part of a sample in which strong results are shown more often than they occur.
reportedProperty: INHIBITION (%)
Field: numeric (%). Do not append units.

These solved cases illustrate the format of a correct answer.
| inputSmiles | INHIBITION / % |
| --- | --- |
| O=C1CCCCCN1Cc1ncnn1Cc1c(F)cccc1Cl | -29.5 |
| CCN1CCN(C2CCN(Cc3nnc(C(C)(C)C)o3)CC2)C1=O | -29.7 |

Next:
// CCC(=O)N1CCC2(CC1)COc1ccccc1S(=O)(=O)N(C)C2 : INHIBITION value = -29.3

* * *

Quick reference for INHIBITION among some compounds
- System: Plasmodium falciparum
- testDescription: Screen against P. falciparum Asexual Blood Stage (ABS), at 5uM
- Type: functional, Dd2
- conditionsUsed: tested at 5 uM
Among all 65,000 compounds or so, about 2,100 (3.2%) showed an effect of 50% or more. The median lay at about -52%. Shown is part of a subset that was picked to be rich in strong results.
Please reply with the bare figure in % and do not write the unit itself.

| compound | experimentalSystem | resultUnit | numericReadout |
| --- | --- | --- | --- |
| Cc1cc(Br)ccc1C(=O)NCCN1CCCCCC1 | Plasmodium falciparum | % | 30.2 |
| O=S(=O)(N1CCCC1)N1C[C@@H](c2cccc(F)c2)[C@@H]2NCCCCC[C@H]21 | Plasmodium falciparum | % | 25.3 |
| Cc1cnc(NC(=O)c2csc(NCC(C)C)n2)s1 | Plasmodium falciparum | % | -175 |
| O=C(NCCn1cccn1)c1ccn(-c2cccc(F)c2)n1 | Plasmodium falciparum | % | -67.5 |
| CC1=C[C@@H](CC#N)[C@H](C(C)C)C[C@H]1CC(=O)N1CCN(CCO)CC1 | Plasmodium falciparum | % | 40 |
| Cc1nc(CNC(=O)Nc2ccc3c(c2)CCCN3C)sc1C | Plasmodium falciparum | % | 60.4 |
| COc1ccc(C(C)Nc2cnn(C)c(=O)c2Cl)cc1OC (stereo not given) | Plasmodium falciparum | % | -40.4 |
| Cc1cc(C(=O)NCCN2CCCC(C)C2)nn1C (stereo not given) | Plasmodium falciparum | % | -67.5 |
| O=C(CCN1C(=O)CCC1=O)Nc1ccc(OCC(F)(F)F)nc1 | Plasmodium falciparum | % | -54.8 |
| Cc1cc(C)c2cc(CNCc3cccnc3)c3nn(C)c(=O)n3c2c1 | Plasmodium falciparum | % | 31.5 |

// INHIBITION value for Cn1nccc1CCNC(=O)[C@H]1CNC[C@H](C(=O)N2CCCC2)C1 : -22.7

Record Cc1cnc(N2CCn3c(CN4CCOCC4)nnc3C2)nc1 , field INHIBITION: -56.3

For record Cc1cc(C)c2cc(CNCC3CCCO3)c3nn(C)c(=O)n3c2c1 (stereo not given) the listed INHIBITION is 7.98

For record COCC1c2nnn(C)c2CCN1C(=O)CCc1cccc(OC)c1 (stereo not given) the listed INHIBITION is -85.3

For reference, reported INHIBITION for O=C(NCC1CCOC1)Nc1ccc(Oc2ccc(F)cc2)nc1 (stereo not given) stands at 29.4

Reported INHIBITION of CCNC(=O)O[C@H]1COCCN(c2nc3ccccc3s2)C1 : 54.8

Reported INHIBITION ( CS(=O)(=O)CCC(=O)N1C[C@H]2CC[C@@H](C1)N(Cc1ccccc1)C2=O ) = -72.6

INHIBITION recorded for this compound, O=C(c1ccc(S(=O)(=O)NCCc2ccncc2)cc1)N1CCCC1 , is -36.5

For reference, reported INHIBITION for c1cnnc(N2CCCC(NCc3nc(-c4ccco4)no3)C2)c1 (stereo not given) stands at -78.3

Looking up CC1CCCN(CCNC(=O)c2ccn(-c3ccc(F)cc3)n2)C1 (stereo not given) , I found its INHIBITION recorded as 50.2

// INHIBITION lookup, compound = Cc1ccc(N2CCC3(CCCN(C(=O)c4cccnc4)C3)C2)nn1 (stereo not given) , result: -0.21

Notebook: CC(C)Nc1ncc(-c2csc(NC(=O)C[C@H]3COCCN3)n2)cn1 , INHIBITION read as -130

Data point: CCc1ccc(C(C)NC(=O)CN(C)Cc2ccc(C)o2)cc1 (stereo not given) ; INHIBITION = 13.3

Query Cc1nc(CNC(=O)Nc2ccc(N(C)C)nc2)sc1C yields INHIBITION of -121

The recorded INHIBITION for entry CC(=O)N1CCN(C(=O)C[C@@H]2C[C@@H](C(C)C)[C@H](CC#N)C=C2C)CC1 equals 53.5
